Source of measurements: patent US20260242735A1

assayed.system: human CD33 C36A (human, UniProt P20138 18-364)
Sequence (P20138 18-364 C36A limits assumed): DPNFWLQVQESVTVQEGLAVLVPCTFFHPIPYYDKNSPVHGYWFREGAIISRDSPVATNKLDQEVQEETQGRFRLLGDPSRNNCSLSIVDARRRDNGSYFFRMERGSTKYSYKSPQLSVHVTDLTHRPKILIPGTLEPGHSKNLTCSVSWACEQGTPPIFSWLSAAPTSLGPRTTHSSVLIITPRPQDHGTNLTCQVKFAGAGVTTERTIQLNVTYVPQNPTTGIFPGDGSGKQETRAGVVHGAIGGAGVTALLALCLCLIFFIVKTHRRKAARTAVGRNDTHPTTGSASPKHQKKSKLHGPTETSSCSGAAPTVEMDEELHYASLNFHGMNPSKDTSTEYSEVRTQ
assay.comment: alanine scan, flow cytometry;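 further: HEK293-T cells transiently expressing single-residue alanine mutants of CD33 (alanine swapped to serine), antibody binding read by fluorescence in duplicate, background-subtracted, expressed relative to wild-type CD33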
measured.quantity: Mean % WT Binding (% WT)

[[record]]
binder = "Refmab #3 (antibody, V domains shown, Full-length format is human IgG1 Fc silent (PG-LALA); The alanine scan used IgG or Fab) VH: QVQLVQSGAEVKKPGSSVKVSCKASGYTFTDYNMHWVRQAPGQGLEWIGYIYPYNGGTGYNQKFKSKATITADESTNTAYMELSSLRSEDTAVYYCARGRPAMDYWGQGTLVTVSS VL: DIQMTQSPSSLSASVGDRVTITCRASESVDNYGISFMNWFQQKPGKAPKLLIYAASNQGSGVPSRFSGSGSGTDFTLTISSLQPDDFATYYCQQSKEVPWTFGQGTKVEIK"
observed = 102

[[record]]
binder = "Refmab #1 (antibody, V domains shown, Full-length format is human IgG1 (Absolute Antibody Ab00283-10.0); The alanine scan used IgG or Fab; also called hP67.6) VH: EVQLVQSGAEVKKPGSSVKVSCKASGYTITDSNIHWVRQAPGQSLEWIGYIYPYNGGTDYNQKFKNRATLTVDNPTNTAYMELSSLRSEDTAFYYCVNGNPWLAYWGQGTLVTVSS VL: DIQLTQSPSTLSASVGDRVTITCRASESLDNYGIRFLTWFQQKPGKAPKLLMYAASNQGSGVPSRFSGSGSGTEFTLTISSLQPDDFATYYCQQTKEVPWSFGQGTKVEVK"
observed = 72.6

[[record]]
binder = "Refmab #2 (antibody, V domains shown, Full-length format is human IgG1 Fc silent (PG-LALA); The alanine scan used IgG or Fab) VH: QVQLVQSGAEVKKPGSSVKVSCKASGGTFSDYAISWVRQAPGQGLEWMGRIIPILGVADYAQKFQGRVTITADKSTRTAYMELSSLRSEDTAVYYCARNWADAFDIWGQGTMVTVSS VL: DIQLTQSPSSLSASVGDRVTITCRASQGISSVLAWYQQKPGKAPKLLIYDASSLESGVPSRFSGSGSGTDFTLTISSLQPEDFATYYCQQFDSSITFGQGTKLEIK"
observed = 117

